Entries annotated with measured logD
Assay: Lipophilicity, logD of compound at pH 7.4 by microscale shake flask method
Assay type: physicochemical
Settings: buffer
Reply briefly: the number, and no unit.

As a guide, the following entries are already answered.
O=C(NCCO)c1cc([N+](=O)[O-])cc([N+](=O)[O-])c1N(CCBr)CCBr | 1.7
Cc1ccc(S(=O)(=O)OCCN(CCBr)c2c(C(=O)NCCO)cc([N+](=O)[O-])cc2[N+](=O)[O-])cc1 | 0.95
O=C(O)CCNC(=O)c1cc([N+](=O)[O-])cc([N+](=O)[O-])c1N(CCBr)CCBr | 0.42
O=C(NCCO)c1cc([N+](=O)[O-])cc([N+](=O)[O-])c1N(CCBr)CCOS(=O)(=O)C(F)(F)F | 0.33
CS(=O)(=O)OCCN(CCBr)c1c(C(=O)NCCC(=O)O)cc([N+](=O)[O-])cc1[N+](=O)[O-] | -0.71
O=C(O)CCNC(=O)c1cc([N+](=O)[O-])cc([N+](=O)[O-])c1N(CCBr)CCOS(=O)(=O)C(F)(F)F | 0.15
Cc1ccc(S(=O)(=O)OCCN(CCBr)c2c(C(=O)NCCC(=O)O)cc([N+](=O)[O-])cc2[N+](=O)[O-])cc1 | 1.03

From here, focus on the item given below.
Recorded result, CS(=O)(=O)OCCN(CCBr)c1c(C(=O)NCCO)cc([N+](=O)[O-])cc1[N+](=O)[O-] , logD: 0.8

Origin of measurements: ChEMBL document CHEMBL4673308
